experiment: Rat pharmacokinetic assay; type: in vivo, male SD rats; details: male, SD, plasma; rat; oral gavage administration 5 mg/kg
Listed next: entries and their corresponding half-life.
Give the value, in units of h, as a plain number.

{"MOLECULE": "C[C@H](NC(=O)c1c(C(F)F)nn(C)c1Oc1cccc(C(C)(F)F)c1)c1ccc(C(=O)O)cc1 [Compound I-5]", "DATA VALUE": 9.87}

--- query ---
Which half-life is reported for this molecule? C[C@H](NC(=O)c1c(C(F)F)nn(C)c1Oc1cccc(C(F)(F)F)c1)c1ccc(C(=O)O)cc1 [Control Compound, reference compound]
12.7

----------
Assay: Mouse pharmacokinetic assay
Type: in vivo, male ICR mice
Conditions: male, ICR, plasma, oral gavage administration 5 mg/kg
Method: In a mouse pharmacokinetic assay, male ICR mice (20 g to 25 g) were selected and fasted overnight. Three mice were selected and intragastrically administered with 5 mg/kg of the corresponding compound. The blood of the mice was collected before the administration and at 15 min, 30 min, 1 h, 2 h, 4 h, 8 h, 24 h after the administration. […] The primary pharmacokinetic parameters were analyzed with a WinNonlin 7.0 software, with non-compartmental model.
Please use Fulfilled whenever Cmax is not below 1000 ng/mL, and Not fulfilled whenever it is.

{"COMPOUND": "C[C@H](NC(=O)c1c(C(F)F)nn(C)c1Oc1cccc(C(C)(F)F)c1)c1ccc(C(=O)O)cc1", "ASSIGNED CLASS": "Fulfilled"}

Check this compound for Cmax at or above 1000 ng/mL: C[C@H](NC(=O)c1c(C(F)F)nn(C)c1Oc1cccc(CC(F)(F)F)c1)c1ccc(C(=O)O)cc1
Fulfilled

Decide: Cmax of C[C@H](NC(=O)c1c(C(F)F)nn(C)c1Oc1cccc(OCC(F)(F)F)c1)c1ccc(C(=O)O)cc1 >= 1000 ng/mL?
Fulfilled

Hello, I need to know if C[C@H](NC(=O)c1c(C(F)F)nn(C)c1Oc1cccc(C(F)(F)F)c1)c1ccc(C(=O)O)cc1 [Control Compound, reference compound] has measured Cmax not below 1000 ng/mL. Thanks!
Not fulfilled

Given the entry CCc1cc(Oc2c(C(=O)N[C@@H](C)c3ccc(C(=O)O)cc3)c(C(F)F)nn2C)ccc1F , answer whether its Cmax meets or surpasses 1000 ng/mL.
Fulfilled

Decide: Cmax of CCc1cccc(Oc2c(C(=O)N[C@@H](C)c3ccc(C(=O)O)cc3)c(C(F)F)nn2C)c1 >= 1000 ng/mL?
Fulfilled

Dear colleague, could you confirm whether C[C@H](NC(=O)c1c(C(F)F)nn(C)c1Sc1cccc(C(F)(F)F)c1)c1ccc(C(=O)O)cc1 has Cmax at or above 1000 ng/mL?
Fulfilled

Quick check, Cmax >= 1000 ng/mL? C[C@H](NC(=O)c1c(C(F)F)nn(C)c1Oc1csc(C(F)(F)F)c1)c1ccc(C(=O)O)cc1
Not fulfilled
